Each item that follows carries a reported GI50.
test system: A375P cell line; assay: A375P cell line proliferation inhibitory activity (MTT assay); type: cell-based; settings: A375P cells, 48 hours treatment
Outcome measure: GI50

INSERT INTO assay_data (structure_notation, outcome_measure, observed) VALUES
  ('Cc1cc(NC(=O)Nc2cc(Cl)cc(Cl)c2)ccc1NC(=O)c1cnoc1C', 'GI50', '10 to 30 µM'),
  ('Cc1ccc(NC(=O)Nc2ccc(Cl)cc2)cc1NC(=O)c1cnoc1C', 'GI50', '10 to 30 µM'),
  ('Cc1ccc(NC(=O)c2ccc(Cl)cc2)cc1NC(=O)c1cnoc1C', 'GI50', '10 to 30 µM'),
  ('CCCS(=O)(=O)Nc1ccc(NC(=O)c2cnoc2C)c(C)c1', 'GI50', '10 to 30 µM'),
  ('Cc1cc(NC(=O)Nc2cccc(Cl)c2)ccc1NC(=O)c1cnoc1C', 'GI50', '10 to 30 µM'),
  ('Cc1ccc(NC(=O)c2cc(-n3ccnc3C)cc(C(F)(F)F)c2)cc1NC(=O)c1cnoc1C', 'GI50', '10 to 30 µM'),
  ('Cc1ccc(NC(=O)Nc2cc(Cl)cc(Cl)c2)cc1NC(=O)c1cnoc1C', 'GI50', '10 to 30 µM'),
  ('Cc1ccc(NC(=O)c2ccc(N3CCOCC3)c(C(F)(F)F)c2)cc1NC(=O)c1cnoc1C', 'GI50', '10 to 30 µM'),
  ('Cc1ccc(NC(=O)c2ccccc2-c2ccccc2)cc1NC(=O)c1cnoc1C', 'GI50', '10 to 30 µM');

* * *

test system: A375P cell line; test: A375P cell line proliferation inhibitory activity (MTT assay); type: cell-based; conditions: A375P cells, 48 hours treatment
Outcome measure: GI50

INSERT INTO assay_data (compound, observed) VALUES
  ('Cc1ccc(NC(=O)c2ccccc2Sc2ccccc2C#N)cc1NC(=O)c1cnoc1C', '10 to 30 µM'),
  ('Cc1ccc(NC(=O)C(c2ccc(Cl)cc2)c2ccc(Cl)cc2)cc1NC(=O)c1cnoc1C', '10 to 30 µM'),
  ('Cc1cc(NC(=O)Nc2ccc(Cl)c(Cl)c2)ccc1NC(=O)c1cnoc1C', '1 to 10 µM'),
  ('Cc1ccc(NC(=O)C2Cc3ccccc3N2)cc1NC(=O)c1cnoc1C (centres unmarked)', '10 to 30 µM'),
  ('Cc1ccc(NC(=O)c2cnc3ccccc3c2)cc1NC(=O)c1cnoc1C', '10 to 30 µM');
